Assay remarks: Pharmacokinetic study in mice
Type: in vivo, nude mice (nu/nu)
Assay conditions: female, nude (nu/nu), mouse; Spleen; Nu/nu; IP 35 mg/kg
Measured metric: half-life (min)
A number alone suffices; assume min.

Fill in the blank: the reported half-life of COc1ccc(S(=O)(=O)N(Cc2ccc3c(c2)C=CC(C)(C)O3)c2ccccc2)cc1OC [KCN1] is ____.
48.6

---

Assay remarks: Pharmacokinetic study in mice
Format: in vivo, nude mice (nu/nu)
Assay conditions: female, nude (nu/nu), mouse; Heart; Nu/nu; IP 35 mg/kg
Measured metric: half-life

Fill in the blank: the reported half-life of `COc1ccc(S(=O)(=O)N(Cc2ccc3c(c2)C=CC(C)(C)O3)c2ccccc2)cc1OC` is ____.
1.22 h

---

Assay remarks: Pharmacokinetic study in mice
Assay type: in vivo, CD-1 mice
Assay conditions: female, mouse; Spleen; CD-1; IP 35 mg/kg
Measured metric: half-life (h)
A number alone suffices; assume h.

Fill in the blank: the reported half-life of `COc1ccc(S(=O)(=O)N(Cc2ccc3c(c2)C=CC(C)(C)O3)c2ccccc2)cc1OC` is ____.
2.35

---

Assay remarks: Pharmacokinetic study in mice
Format: in vivo, nude mice (nu/nu)
Assay conditions: female, nude (nu/nu), mouse; Kidneys; Nu/nu; IV 35 mg/kg
Measured metric: half-life (h)
A number alone suffices; assume h.

Fill in the blank: the reported half-life of `COc1ccc(S(=O)(=O)N(Cc2ccc3c(c2)C=CC(C)(C)O3)c2ccccc2)cc1OC` is ____.
1.8

---

Assay remarks: Pharmacokinetic study in mice
Assay type: in vivo, nude mice (nu/nu)
Assay conditions: female, nude (nu/nu), mouse; Liver; Nu/nu; IV 35 mg/kg
Measured metric: half-life (h)
A number alone suffices; assume h.

Fill in the blank: the reported half-life of `COc1ccc(S(=O)(=O)N(Cc2ccc3c(c2)C=CC(C)(C)O3)c2ccccc2)cc1OC` is ____.
3.39

---

Assay remarks: Pharmacokinetic study in mice
Assay type: in vivo, CD-1 mice
Assay conditions: female, mouse; Liver; CD-1; IV 35 mg/kg; read-out: Tmax
Measured metric: Tmax (min)
A number alone suffices; assume min.

Fill in the blank: the reported Tmax of `COc1ccc(S(=O)(=O)N(Cc2ccc3c(c2)C=CC(C)(C)O3)c2ccccc2)cc1OC` is ____.
4.8

---

Assay remarks: Pharmacokinetic study in mice
Type: in vivo, nude mice (nu/nu)
Assay conditions: female, nude (nu/nu), mouse; Liver; Nu/nu; IP 35 mg/kg
Measured metric: half-life (h)
A number alone suffices; assume h.

Fill in the blank: the reported half-life of `COc1ccc(S(=O)(=O)N(Cc2ccc3c(c2)C=CC(C)(C)O3)c2ccccc2)cc1OC` is ____.
2.52

---

Assay remarks: Pharmacokinetic study in mice
Format: in vivo, CD-1 mice
Assay conditions: female, mouse; Plasma; CD-1; IV 35 mg/kg
Measured metric: half-life (min)
A number alone suffices; assume min.

Fill in the blank: the reported half-life of `COc1ccc(S(=O)(=O)N(Cc2ccc3c(c2)C=CC(C)(C)O3)c2ccccc2)cc1OC` is ____.
9.6

---

Assay remarks: Pharmacokinetic study in mice
Type: in vivo, nude mice (nu/nu)
Assay conditions: female, nude (nu/nu), mouse; Kidneys; Nu/nu; IP 35 mg/kg; read-out: Tmax
Measured metric: Tmax (min)
A number alone suffices; assume min.

Fill in the blank: the reported Tmax of `COc1ccc(S(=O)(=O)N(Cc2ccc3c(c2)C=CC(C)(C)O3)c2ccccc2)cc1OC` is ____.
15

---

Assay remarks: Pharmacokinetic study in mice
Format: in vivo, nude mice (nu/nu)
Assay conditions: female, nude (nu/nu), mouse; Kidneys; Nu/nu; IV 35 mg/kg; read-out: Tmax
Measured metric: Tmax (min)
A number alone suffices; assume min.

Fill in the blank: the reported Tmax of `COc1ccc(S(=O)(=O)N(Cc2ccc3c(c2)C=CC(C)(C)O3)c2ccccc2)cc1OC` is ____.
4.8

---

Assay remarks: Pharmacokinetic study in mice
Type: in vivo, nude mice (nu/nu)
Assay conditions: female, nude (nu/nu), mouse; Liver; Nu/nu; IV 35 mg/kg; read-out: Tmax
Measured metric: Tmax (h)
A number alone suffices; assume h.

Fill in the blank: the reported Tmax of COc1ccc(S(=O)(=O)N(Cc2ccc3c(c2)C=CC(C)(C)O3)c2ccccc2)cc1OC [KCN1] is ____.
2

---

Assay remarks: Pharmacokinetic study in mice
Format: in vivo, nude mice (nu/nu)
Assay conditions: female, nude (nu/nu), mouse, plasma, ip; nude mice, I.P. 35 mg/kg; read-out: time of maximum plasma level
Measured metric: Tmax (h)
A number alone suffices; assume h.

Fill in the blank: the reported Tmax of `COc1ccc(S(=O)(=O)N(Cc2ccc3c(c2)C=CC(C)(C)O3)c2ccccc2)cc1OC` is ____.
2

---

Assay remarks: Pharmacokinetic study in mice
Assay type: in vivo, CD-1 mice
Assay conditions: female, mouse; Heart; CD-1; IV 35 mg/kg; read-out: Tmax
Measured metric: Tmax (min)
A number alone suffices; assume min.

Fill in the blank: the reported Tmax of `COc1ccc(S(=O)(=O)N(Cc2ccc3c(c2)C=CC(C)(C)O3)c2ccccc2)cc1OC` is ____.
4.8

---

Assay remarks: Pharmacokinetic study in mice
Format: in vivo, CD-1 mice
Assay conditions: female, mouse; Plasma; CD-1; IP 35 mg/kg
Measured metric: half-life (h)
A number alone suffices; assume h.

Fill in the blank: the reported half-life of `COc1ccc(S(=O)(=O)N(Cc2ccc3c(c2)C=CC(C)(C)O3)c2ccccc2)cc1OC` is ____.
7.35

---

Assay remarks: Pharmacokinetic study in mice
Type: in vivo, CD-1 mice
Assay conditions: female, mouse; Spleen; CD-1; IP 35 mg/kg; read-out: Tmax
Measured metric: Tmax (h)
A number alone suffices; assume h.

Fill in the blank: the reported Tmax of `COc1ccc(S(=O)(=O)N(Cc2ccc3c(c2)C=CC(C)(C)O3)c2ccccc2)cc1OC` is ____.
2

---

Assay remarks: Pharmacokinetic study in mice
Format: in vivo, nude mice (nu/nu)
Assay conditions: female, nude (nu/nu), mouse; Brain; Nu/nu; IP 35 mg/kg
Measured metric: half-life (min)
A number alone suffices; assume min.

Fill in the blank: the reported half-life of COc1ccc(S(=O)(=O)N(Cc2ccc3c(c2)C=CC(C)(C)O3)c2ccccc2)cc1OC [KCN1] is ____.
57

---

Assay remarks: Pharmacokinetic study in mice
Assay type: in vivo, CD-1 mice
Assay conditions: female, mouse; Heart; CD-1; IP 35 mg/kg; read-out: Tmax
Measured metric: Tmax (min)
A number alone suffices; assume min.

Fill in the blank: the reported Tmax of COc1ccc(S(=O)(=O)N(Cc2ccc3c(c2)C=CC(C)(C)O3)c2ccccc2)cc1OC [KCN1] is ____.
10.2

---

Assay remarks: Pharmacokinetic study in mice
Format: in vivo, CD-1 mice
Assay conditions: female, mouse; Heart; CD-1; IP 35 mg/kg
Method: Female CD-1 and nude mice were administered 35 mg/kg body weight of KCN1 as either a single intravenous injection via a tail vein or via an intraperitoneal injection. […] The collection containers and cages were washed twice with 0.9% saline solution, and each urine collection and each wash was analyzed separately, then values were added together for each mouse to determine the total KCN1 present in urine during the collection period. […]
Measured metric: half-life (h)
A number alone suffices; assume h.

Fill in the blank: the reported half-life of `COc1ccc(S(=O)(=O)N(Cc2ccc3c(c2)C=CC(C)(C)O3)c2ccccc2)cc1OC` is ____.
2.19

---

Assay remarks: Pharmacokinetic study in mice
Assay type: in vivo, CD-1 mice
Assay conditions: female, mouse; Kidneys; CD-1; IP 35 mg/kg
Measured metric: half-life (h)
A number alone suffices; assume h.

Fill in the blank: the reported half-life of `COc1ccc(S(=O)(=O)N(Cc2ccc3c(c2)C=CC(C)(C)O3)c2ccccc2)cc1OC` is ____.
2.5

---

Assay remarks: Pharmacokinetic study in mice
Assay type: in vivo, nude mice (nu/nu)
Assay conditions: female, nude (nu/nu), mouse, plasma, iv; nude mice, bolus I.V. 35 mg/kg, 5 minutes
Measured metric: concentration at 5 min (ng/mL)
A number alone suffices; assume ng/mL.

Fill in the blank: the reported concentration at 5 min of `COc1ccc(S(=O)(=O)N(Cc2ccc3c(c2)C=CC(C)(C)O3)c2ccccc2)cc1OC` is ____.
5190

---

Assay remarks: Pharmacokinetic study in mice
Assay type: in vivo, CD-1 mice
Assay conditions: female, mouse, plasma, iv; CD-1 mice, bolus I.V. 35 mg/kg, 5 minutes
Measured metric: concentration at 5 min (ng/mL)
A number alone suffices; assume ng/mL.

Fill in the blank: the reported concentration at 5 min of `COc1ccc(S(=O)(=O)N(Cc2ccc3c(c2)C=CC(C)(C)O3)c2ccccc2)cc1OC` is ____.
9980

---

Assay remarks: Pharmacokinetic study in mice
Format: in vivo, nude mice (nu/nu)
Assay conditions: female, nude (nu/nu), mouse; Brain; Nu/nu; IV 35 mg/kg; read-out: Tmax
Measured metric: Tmax (min)
A number alone suffices; assume min.

Fill in the blank: the reported Tmax of COc1ccc(S(=O)(=O)N(Cc2ccc3c(c2)C=CC(C)(C)O3)c2ccccc2)cc1OC [KCN1] is ____.
4.8
